Measured values drawn from patent US7919488B2 for this set.

Target: recombinant CYP3A4-b5 enzyme (Baculosomes®) (Homo sapiens)
Construct: purchased Invitrogen (Carlsbad, Calif.)
Sequence (P08684 whole entry): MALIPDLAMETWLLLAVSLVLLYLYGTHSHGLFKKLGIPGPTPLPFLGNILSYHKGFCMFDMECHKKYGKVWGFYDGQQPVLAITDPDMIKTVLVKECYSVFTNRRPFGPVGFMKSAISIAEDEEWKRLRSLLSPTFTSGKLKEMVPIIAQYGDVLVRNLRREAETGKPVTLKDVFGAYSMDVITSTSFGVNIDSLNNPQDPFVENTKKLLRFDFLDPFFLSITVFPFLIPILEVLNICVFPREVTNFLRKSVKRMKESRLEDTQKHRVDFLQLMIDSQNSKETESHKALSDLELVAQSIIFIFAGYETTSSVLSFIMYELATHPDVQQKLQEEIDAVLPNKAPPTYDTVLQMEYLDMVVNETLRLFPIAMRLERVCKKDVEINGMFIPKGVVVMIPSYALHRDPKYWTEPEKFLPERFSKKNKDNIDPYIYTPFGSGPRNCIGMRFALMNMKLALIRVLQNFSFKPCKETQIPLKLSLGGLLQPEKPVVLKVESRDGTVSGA
Assay: Kiapp against recombinant CYP3A4 enzyme (Baculosomes), BFC substrate
Format: biochemical
Conditions: recombinant CYP3A4-b5 (Invitrogen), 5 uM BFC, 200 uM NADPH, pre-incubation at least 30 minutes, pH 7.0, room temperature
Returns: string. Value is class 1 if measured Ki is below 0.08 µM, and class 0 if it is greater than or equal to it.

Q: Does the reported Ki of the following molecule sit strictly below 0.08 µM? `O=C(Cn1nc(-c2c[nH]cn2)cc1Cc1ccc(F)cc1)N1CCC[C@@H](O)C1`
A: class 0

Q: Strictly below 0.08 µM: is that where Ki of `CC(C)(CN1CCOCC1)NC(=O)Cn1nc(-c2c[nH]nn2)cc1Cc1ccc(F)cc1` sits?
A: class 0

Q: Lab note: confirm whether the reported Ki for this molecule is below 0.08 µM, equality not counting. molecule: `O=C(Cn1nc(-c2c[nH]cn2)cc1Cc1ccc(F)cc1)N1CCN(c2ncccn2)CC1`
A: class 0

Q: Hello, is Ki of the following molecule strictly smaller than 0.08 µM? `CN(C1CCN(C(=O)Cn2nc(-c3ccncc3)cc2Cc2ccc(F)cc2)CC1)S(C)(=O)=O`
A: class 1

Q: Hello, is Ki of the following molecule strictly smaller than 0.08 µM? CC(NC(=O)Cn1nc(-c2ccncc2)cc1Cc1ccc(F)cc1)c1cnn(C)c1 (centres unmarked)
A: class 0

Q: # strict comparison: is reported Ki < 0.08 µM? input = `COC(=O)N(C)C1CCN(C(=O)Cn2nc(-c3ccncc3)cc2Cc2ccc(F)cc2)CC1`
A: class 1

Q: I'd appreciate it if you could check whether `CNC(=O)N(C)C1CCN(C(=O)Cn2nc(-c3ccncc3)cc2Cc2ccc(F)cc2)CC1` has Ki smaller than 0.08 µM.
A: class 1

Q: Does the reported Ki of the following molecule sit strictly below 0.08 µM? `COC(=O)NC1CCN(C(=O)Cn2nc(-c3ccncc3)cc2Cc2ccc(F)cc2)CC1`
A: class 1

Q: Say whether its Ki is strictly beneath 0.08 µM. Entry: `C[C@H](CO)NC(=O)Cn1nc(-c2ccncc2)cc1Cc1ccc(F)cc1`
A: class 0

Q: Is it true that Ki reported for `CN(C)C(=O)c1noc(Cn2nc(-c3ccncc3)cc2Cc2ccc(F)cc2)n1` is less than 0.08 µM?
A: class 0

Q: Item `Cc1cc(CNC(=O)Cn2nc(-c3ccncc3)cc2Cc2ccc(F)cc2)on1` : Ki beneath 0.08 µM, strictly?
A: class 1

Q: Given `OCCn1nc(Cc2ccc(F)cc2)cc1-c1ccncc1` , is recorded Ki strictly lower than 0.08 µM?
A: class 0

Q: Say whether its Ki is strictly beneath 0.08 µM. Entry: O=C(Cn1nc(-c2ccncc2)cc1Cc1ccc(F)cc1)NC1CCS(=O)(=O)C1 (centres unmarked)
A: class 1

Q: # strict comparison: is reported Ki < 0.08 µM? input = `CN(C(=O)C1CCC1)C1CCN(C(=O)Cn2nc(-c3ccncc3)cc2Cc2ccc(F)cc2)CC1`
A: class 1

Q: Bench note: check whether `OCCCn1nc(-c2ccncc2)cc1Cc1ccc(F)cc1` shows Ki below 0.08 µM
A: class 0

Q: Does the reported Ki of the following molecule sit strictly below 0.08 µM? `Cc1nnc(Cn2nc(-c3ccncc3)cc2Cc2ccc(F)cc2)o1`
A: class 0

Q: Given `O=C(NC1CCN(C(=O)Cn2nc(-c3ccncc3)cc2Cc2ccc(F)cc2)CC1)C1CCC1` , is recorded Ki strictly lower than 0.08 µM?
A: class 1
